System: 922993-354-T-J3-PDC complex spheroid viability
Assay text: Anticancer human tumor 922993-354-T-J3-PDC patient-derived endometrial carcinoma cell line growth inhibition [POLQ]
Settings: second compound 0.1 µM; first compound 0.1 µM; stronger effect = lower value
Readout name: viability, T/C (%)

Compound	Measured result
C=CC(=O)N1CCN(c2nc(=O)n(-c3c(C)ccnc3C(C)C)c3nc(-c4c(O)cccc4F)c(F)cc23)C(C)C1 (configuration not stated) + Cc1cccc(N(C)C(=O)C2C(O)CCN2c2nc(C)cc(C(F)(F)F)c2C#N)c1	103
CC1COCCN1c1cc(C2(O)CC3CCC(C2)O3)c2cnn(-c3ccn[nH]3)c2n1 (configuration not stated) + COC1C(OC(N)=O)C(O)C(Oc2ccc3c(O)c(NC(=O)c4ccc(O)c(CC=C(C)C)c4)c(=O)oc3c2C)OC1(C)C	68.5
Cn1ncnc1[C@H]1c2n[nH]c(=O)c3cc(F)cc(c23)N[C@@H]1c1ccc(F)cc1 + COC1C(OC(N)=O)C(O)C(Oc2ccc3c(O)c(NC(=O)c4ccc(O)c(CC=C(C)C)c4)c(=O)oc3c2C)OC1(C)C	79.8
COc1cccc2c1C(=O)c1c(O)c3c(c(O)c1C2=O)CC(O)(C(=O)CO)CC3OC1CC(N)C(O)C(C)O1 (configuration not stated) + Cc1cccc(N(C)C(=O)C2C(O)CCN2c2nc(C)cc(C(F)(F)F)c2C#N)c1	97.2
CC(C)n1c(=O)n(C)c2cnc3cc(F)c(-c4ccc(OCCCN5CCCCC5)nc4)cc3c21 + COC1C(OC(N)=O)C(O)C(Oc2ccc3c(O)c(NC(=O)c4ccc(O)c(CC=C(C)C)c4)c(=O)oc3c2C)OC1(C)C	97.2
C=CCn1c(=O)c2cnc(Nc3ccc(N4CCN(C)CC4)cc3)nc2n1-c1cccc(C(C)(C)O)n1 + Cc1cccc(N(C)C(=O)C2C(O)CCN2c2nc(C)cc(C(F)(F)F)c2C#N)c1	103
CC[C@@]1(O)C(=O)OCc2c1cc1n(c2=O)Cc2cc3c(CN(C)C)c(O)ccc3nc2-1 + Cc1cccc(N(C)C(=O)C2C(O)CCN2c2nc(C)cc(C(F)(F)F)c2C#N)c1	65.5

----------
Test system: 922993-354-T-J3-PDC complex spheroid viability
Assay text: Anticancer human tumor 922993-354-T-J3-PDC cell line growth inhibition [POLQ];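 also: spheroids exposed to the agents for one week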;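 as to viability, T/C: 100% = DMSO vehicle control wells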
Settings: second compound 0.316 µM; first compound 0.0316 µM; stronger effect = lower value
Listing of recorded viability, T/C by entry.
Readout name: viability, T/C

Compound	Measured result
CCc1cc2c(N3CCc4c(cc(Cn5ccnc5)cc4-c4cn(C)nc4C(F)(F)F)C3=O)ccnc2c(OC)n1 + COC1C(OC(N)=O)C(O)C(Oc2ccc3c(O)c(NC(=O)c4ccc(O)c(CC=C(C)C)c4)c(=O)oc3c2C)OC1(C)C	104%
CCc1cc2c(N3CCc4c(cc(Cn5ccnc5)cc4-c4cn(C)nc4C(F)(F)F)C3=O)cc(C)nc2c(OC)n1 + COC1C(OC(N)=O)C(O)C(Oc2ccc3c(O)c(NC(=O)c4ccc(O)c(CC=C(C)C)c4)c(=O)oc3c2C)OC1(C)C	103%
CCc1c2c(nc3ccc(O)cc13)-c1cc3c(c(=O)n1C2)COC(=O)[C@]3(O)CC + Nc1ccc(C#CCN(C(=O)Cc2ncc(C(F)(F)F)cc2C(F)(F)F)c2ccc(F)cc2)nn1	50.3%
COc1cc2cc(C(=O)CCC(=O)O)sc2cc1OC + Cc1cccc(N(C)C(=O)C2C(O)CCN2c2nc(C)cc(C(F)(F)F)c2C#N)c1	102%
COc1cccc(OCCCN)c1-c1cc(Nc2cnc(C#N)cn2)n[nH]1 + Cc1cccc(N(C)C(=O)C2C(O)CCN2c2nc(C)cc(C(F)(F)F)c2C#N)c1	101%
O=C(c1cc(Cc2n[nH]c(=O)c3ccccc23)ccc1F)N1CCN(C(=O)C2CC2)CC1 + Cc1cccc(N(C)C(=O)C2C(O)CCN2c2nc(C)cc(C(F)(F)F)c2C#N)c1	113%

----------
Below, each of the compounds is paired with its reported viability, T/C value.
System: 922993-354-T-J3-PDC complex spheroid viability
Assay text: Anticancer human tumor 922993-354-T-J3-PDC cell line growth inhibition [POLQ];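 also: spheroids exposed to the agents for one week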;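 as to viability, T/C: 100% = DMSO vehicle control wells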
Settings: second compound 1 µM; first compound 0.01 µM; stronger effect = lower value

Compound	System	viability, T/C, %
C=CCn1c(=O)c2cnc(Nc3ccc(N4CCN(C)CC4)cc3)nc2n1-c1cccc(C(C)(C)O)n1 + COC1C(OC(N)=O)C(O)C(Oc2ccc3c(O)c(NC(=O)c4ccc(O)c(CC=C(C)C)c4)c(=O)oc3c2C)OC1(C)C	922993-354-T-J3-PDC complex spheroid viability	95.7
C=CCn1c(=O)c2cnc(Nc3ccc(N4CCN(C)CC4)cc3)nc2n1-c1cccc(C(C)(C)O)n1 + Nc1ccc(C#CCN(C(=O)Cc2ncc(C(F)(F)F)cc2C(F)(F)F)c2ccc(F)cc2)nn1	922993-354-T-J3-PDC complex spheroid viability	99
COc1cccc(OCCCN)c1-c1cc(Nc2cnc(C#N)cn2)n[nH]1 + COC1C(OC(N)=O)C(O)C(Oc2ccc3c(O)c(NC(=O)c4ccc(O)c(CC=C(C)C)c4)c(=O)oc3c2C)OC1(C)C	922993-354-T-J3-PDC complex spheroid viability	94
CCc1c2c(nc3ccc(O)cc13)-c1cc3c(c(=O)n1C2)COC(=O)[C@]3(O)CC + Cc1cccc(N(C)C(=O)C2C(O)CCN2c2nc(C)cc(C(F)(F)F)c2C#N)c1	922993-354-T-J3-PDC complex spheroid viability	72.8
CCc1c2c(nc3ccc(O)cc13)-c1cc3c(c(=O)n1C2)COC(=O)[C@]3(O)CC + COC1C(OC(N)=O)C(O)C(Oc2ccc3c(O)c(NC(=O)c4ccc(O)c(CC=C(C)C)c4)c(=O)oc3c2C)OC1(C)C	922993-354-T-J3-PDC complex spheroid viability	37.9
C=CCn1c(=O)c2cnc(Nc3ccc(N4CCN(C)CC4)cc3)nc2n1-c1cccc(C(C)(C)O)n1 + Cc1cccc(N(C)C(=O)C2C(O)CCN2c2nc(C)cc(C(F)(F)F)c2C#N)c1	922993-354-T-J3-PDC complex spheroid viability	101
CC[C@@]1(O)C(=O)OCc2c1cc1n(c2=O)Cc2cc3c(CN(C)C)c(O)ccc3nc2-1 + COC1C(OC(N)=O)C(O)C(Oc2ccc3c(O)c(NC(=O)c4ccc(O)c(CC=C(C)C)c4)c(=O)oc3c2C)OC1(C)C	922993-354-T-J3-PDC complex spheroid viability	94.6
CCc1c2c(nc3ccc(O)cc13)-c1cc3c(c(=O)n1C2)COC(=O)[C@]3(O)CC + Nc1ccc(C#CCN(C(=O)Cc2ncc(C(F)(F)F)cc2C(F)(F)F)c2ccc(F)cc2)nn1	922993-354-T-J3-PDC complex spheroid viability	88.9
CC[C@@]1(O)C(=O)OCc2c1cc1n(c2=O)Cc2cc3c(CN(C)C)c(O)ccc3nc2-1 + Cc1cccc(N(C)C(=O)C2C(O)CCN2c2nc(C)cc(C(F)(F)F)c2C#N)c1	922993-354-T-J3-PDC complex spheroid viability	99.7
CC[C@@]1(O)C(=O)OCc2c1cc1n(c2=O)Cc2cc3c(CN(C)C)c(O)ccc3nc2-1 + Nc1ccc(C#CCN(C(=O)Cc2ncc(C(F)(F)F)cc2C(F)(F)F)c2ccc(F)cc2)nn1	922993-354-T-J3-PDC complex spheroid viability	99.2
COc1cccc(OCCCN)c1-c1cc(Nc2cnc(C#N)cn2)n[nH]1 + Nc1ccc(C#CCN(C(=O)Cc2ncc(C(F)(F)F)cc2C(F)(F)F)c2ccc(F)cc2)nn1	922993-354-T-J3-PDC complex spheroid viability	105

----------
Tested on: 922993-354-T-J3-PDC complex spheroid viability
Assay text: Anticancer human tumor 922993-354-T-J3-PDC cell line growth inhibition [POLQ];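 also: spheroids exposed to the agents for one week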
Settings: curve of first compound; second compound 3.16 µM
Each entry below lists one item and its recorded IC50 value.
Readout name: IC50

Compound	Measured result
Cn1ncnc1[C@H]1c2n[nH]c(=O)c3cc(F)cc(c23)N[C@@H]1c1ccc(F)cc1 + COC1C(OC(N)=O)C(O)C(Oc2ccc3c(O)c(NC(=O)c4ccc(O)c(CC=C(C)C)c4)c(=O)oc3c2C)OC1(C)C	> 0.1 µM
O=C(Nc1ccc(O)c(NS(=O)(=O)c2ccc(F)cc2)c1)c1ccc(-c2ccccc2)cc1 + COC1C(OC(N)=O)C(O)C(Oc2ccc3c(O)c(NC(=O)c4ccc(O)c(CC=C(C)C)c4)c(=O)oc3c2C)OC1(C)C	> 10 µM
C#Cc1c(F)ccc2cc(O)cc(-c3ncc4c(N5CC6CCC(C5)N6)nc(OCC56CCCN5CC(F)C6)nc4c3F)c12 (stereo not drawn) + Nc1ccc(C#CCN(C(=O)Cc2ncc(C(F)(F)F)cc2C(F)(F)F)c2ccc(F)cc2)nn1	> 10 µM

----------
Tested on: 922993-354-T-J3-PDC complex spheroid viability
Assay text: Anticancer human tumor 922993-354-T-J3-PDC cell line growth inhibition [POLQ];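 also: spheroids exposed to the agents for one week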
Settings: curve of first compound; second compound 0.316 µM
pIC50: −log10 of the molar value.
Measured pIC50 values are reported for all entries that follow.
Readout name: pIC50

Molecule	Measured result
CC(=O)O[C@H]1C(=O)[C@@]2(C)[C@H]([C@H](OC(=O)c3ccccc3)[C@]3(O)C[C@H](OC(=O)[C@H](O)[C@@H](NC(=O)c4ccccc4)c4ccccc4)C(C)=C1C3(C)C)[C@]1(OC(C)=O)CO[C@@H]1C[C@@H]2O + Cc1cccc(N(C)C(=O)C2C(O)CCN2c2nc(C)cc(C(F)(F)F)c2C#N)c1	< 5.52
O=C(Nc1ccc(O)c(NS(=O)(=O)c2ccc(F)cc2)c1)c1ccc(-c2ccccc2)cc1 + COC1C(OC(N)=O)C(O)C(Oc2ccc3c(O)c(NC(=O)c4ccc(O)c(CC=C(C)C)c4)c(=O)oc3c2C)OC1(C)C	< 5.00
CC1COCCN1c1cc(C2(S(C)(=N)=O)CC2)nc(-c2ccnc3[nH]ccc23)n1 (stereo unspecified) + Nc1ccc(C#CCN(C(=O)Cc2ncc(C(F)(F)F)cc2C(F)(F)F)c2ccc(F)cc2)nn1	< 5.00
COc1cc2cc(C(=O)CCC(=O)O)sc2cc1OC + COC1C(OC(N)=O)C(O)C(Oc2ccc3c(O)c(NC(=O)c4ccc(O)c(CC=C(C)C)c4)c(=O)oc3c2C)OC1(C)C	< 5.00
C#Cc1c(F)ccc2cc(O)cc(-c3ncc4c(N5CC6CCC(C5)N6)nc(OCC56CCCN5CC(F)C6)nc4c3F)c12 (stereo unspecified) + COC1C(OC(N)=O)C(O)C(Oc2ccc3c(O)c(NC(=O)c4ccc(O)c(CC=C(C)C)c4)c(=O)oc3c2C)OC1(C)C	< 5.00
COc1ccc([C@@H](O)c2cc(-c3ncnc4cc(N5CCOCC5)ccc34)c(F)cc2Cl)nn1 + Cc1cccc(N(C)C(=O)C2C(O)CCN2c2nc(C)cc(C(F)(F)F)c2C#N)c1	< 5.00
